# System: 3T3-L1 Mouse Adipocytes
# Procedure Text: Insulin-dependent effect on free fatty acid levels in cultured mouse adipocytes
# Format: cell-based
# Cond: peptide 10 μM alone, 3 hours; percent of isoproterenol (0.1 nM) treated control cells
# Procedure: The effect of the peptides on fatty acid metabolism was assessed in the absence and presence of insulin using an assay of free fatty acid levels in cultured cells such as mouse adipocytes. Peptides were initially prepared as 10 mM stock in DMSO and used at a final concentration of 10 μM (0.1% DMSO). […] At the end of the final 3 h incubation, conditioned assay buffer was removed from each well and place in a fresh 96-well plate for quantitation of free fatty acid content. […]
Positions of bridges follow the written chain, without caps; N, C: chain ends. Non-standard residues stand in square brackets, D forms with d. Primed or numbered codes have the meaning given here. Chains are numbered I, II in the order given. No end group written: not given here. PEG12′ = not defined here; Nle = CCCC[C@H](N)C(=O)O
Observation Type: Free Fatty Acid Levels, MEAN % ISO, −Insulin (%)

Substance: RVIRMCLNNGLNGEL(dA)G (RVIRMCLNNGLNGEL[dA]G) [SEQ ID NO: 22]
Units Of Measure: %
Measured: 93.6
//
Substance: {PEG12}KRVIRMCLNVGLLGEL(dA)E ([PEG12′]KRVIRMCLNVGLLGEL[dA]E) [SEQ ID NO: 18]
Units Of Measure: %
Measured: 107
//
Substance: RVIRMCLNVGLNGEL(dA)G (RVIRMCLNVGLNGEL[dA]G) [SEQ ID NO: 11]
Units Of Measure: %
Measured: 65.5
//
Substance: RVIR(Nle)SLNVGLEGEL(dA) (RVIR[Nle]SLNVGLEGEL[dA]) [SEQ ID NO: 14]
Units Of Measure: %
Measured: 89.9
//
Substance: R(dA)IR(Nle)SLNVGLLGEL(dA) (R[dA]IR[Nle]SLNVGLLGEL[dA]) [SEQ ID NO: 15]
Units Of Measure: %
Measured: 97.6
//
Substance: RVIRMCLGVGLLGDLAG (disulfide I:6-II:6) [SEQ ID NO: 26]
Units Of Measure: %
Measured: 93.5
//
Substance: RVIRMCLNVGLLGEL(dA)E (RVIRMCLNVGLLGEL[dA]E) [SEQ ID NO: 12]
Units Of Measure: %
Measured: 92.8
//
Substance: RVIRMCLNNGLNGEL(dA)E (RVIRMCLNNGLNGEL[dA]E) [SEQ ID NO: 23]
Units Of Measure: %
Measured: 99.4
